Recorded growth for the following compounds
system: NCI-H322M lung; test: NCI-60 one-dose screen, 48 h (100 = growth as untreated, 0 = no growth, -100 = all killed); conditions: 10 µM unless noted
Compounds without any hit were thinned out: in the full panel of roughly 83,000, 20% have a hit.
Report the figure in % without appending any unit label.

Solved entries:
Compound: Cc1c(-n2nnc(-c3nc4ccccc4s3)c2N)c(=O)n(-c2ccccc2)n1C
growth / %: 100

Compound: O=C1/C(=C/c2cccs2)SC(=S)N1CCCN1CCOCC1
growth / %: 94.7

Write down growth measured for item CC12CCC3c4ccccc4CCC3(CO1)C2 (stereo unspecified)
94.7

Write down growth measured for item `O=C(NNc1nccc(Nc2ccc(S(=O)(=O)Nc3ccncc3)cc2)n1)c1ccccc1`
96.9

Write down growth measured for item `Cc1nc(N2CCOCC2)sc1S(N)(=O)=O`
94

Write down growth measured for item `CCCc1cc(NC)nc(S(=O)(=O)CC)n1`
106

----------
Recorded growth for the following compounds
test system: RPMI-8226 leukemia; experiment: NCI-60 one-dose screen, 48 h (100 = growth as untreated, 0 = no growth, -100 = all killed); conditions: 10 µM unless noted
The panel holds about 83,000 compounds, 20% with a hit somewhere; the sample as a whole holds those more often.
Report the figure in % without appending any unit label.

Write down growth measured for item `CCCCNC(=O)Oc1ccc(/C(=C(/CC)Cc2ccccc2)c2ccc(OCCN3CCCCCC3)cc2)cc1`
-27.6

Write down growth measured for item O=C(CCCCC1CCSS1)Nc1ncnc2n[nH]c(-c3ccc(Oc4ccccc4)cc3)c12 (stereo not given)
85.4

Write down growth measured for item `O=C(O)/C(=C\c1ccc(Cl)cc1)c1ccc(Cl)cc1`
100

Write down growth measured for item `Cc1cccnc1NC(=S)Nc1ncccc1C`
80.9

Write down growth measured for item `C=C(C)[C@@H]1CC[C@]2(C)[C@H](CC=C3[C@@H]4[C@H](C)[C@@H](C)CC[C@]4(CO)CC[C@]32C)[C@@]1(C)CCCN`
-33.7

----------
tested on: COLO 205 colon; assay: NCI-60 one-dose screen, 48 h; settings: 10 µM unless noted
Compounds without any hit were thinned out: in the full panel of roughly 83,000, 20% have a hit. Active and inactive are the calls of the source. Rule for the calls: active = growth percent below 10; inactive = the rest.
Please reply with one of these outcomes: active, inactive

Structure: CCn1c(=S)sc2c(Nc3ccc(F)cc3)nc(-c3cccnc3)nc21
Assigned Class: inactive

Outcome? `C=C1C(=O)O[C@H]2[C@H]1CC/C(COC(=O)N[C@H]1C[C@H](O[C@H]3C[C@](O)(C(=O)CO)Cc4c(O)c5c(c(O)c43)C(=O)c3c(OC)cccc3C5=O)O[C@@H](C)[C@H]1O)=C\CC[C@@]1(C)O[C@@H]21`
inactive

Outcome? `Cc1oc(-c2ccc(Cl)cc2)nc1/C=C/C(=O)c1ccccc1`
inactive

----------
Recorded growth for the following molecules
test system: EKVX NSCLC; assay: NCI-60 one-dose screen, 48 h (100 = growth as untreated, 0 = no growth, -100 = all killed); conditions: 10 µM unless noted
Compounds without any hit were thinned out: in the full panel of roughly 83,000, 20% have a hit.
Report the figure in % without appending any unit label.

Molecule: CCC(C)N(c1ccc(Cl)cc1)c1nc(-c2ccc(Br)cc2)cs1 (stereo not given)
Experimental Target: EKVX NSCLC
Units: %
growth: 80.2
--
Molecule: Cc1nc2c(=O)[nH]c(SCC(=O)Nc3cccc(F)c3)nc2[nH]c1=O
Experimental Target: EKVX NSCLC
Units: %
growth: 104
--
Molecule: CN1CCN(Cc2ccc(NC(=O)c3cncc(C#Cc4cnc(N)c5ccccc45)c3)cc2C(F)(F)F)CC1
Experimental Target: EKVX NSCLC
Units: %
growth: -96.3

Write down growth measured for item `COc1ccc(OC)c(C(=O)/C=C/c2cc3c(c(OC)c2OC)OCO3)c1`
73

Write down growth measured for item `CCCCNC(=O)Oc1ccc(/C(=C(/CC)Cc2ccccc2)c2ccc(OCCN3CCCCCC3)cc2)cc1`
59.2
